Where do the numbers come from? From patent US20140274782A1.

Molecular target: T1, G9a and GLP (Homo sapiens, UniProt Q96KQ7+Q9H9B1)
T1 sequence (Q96KQ7 2-1210 limits assumed): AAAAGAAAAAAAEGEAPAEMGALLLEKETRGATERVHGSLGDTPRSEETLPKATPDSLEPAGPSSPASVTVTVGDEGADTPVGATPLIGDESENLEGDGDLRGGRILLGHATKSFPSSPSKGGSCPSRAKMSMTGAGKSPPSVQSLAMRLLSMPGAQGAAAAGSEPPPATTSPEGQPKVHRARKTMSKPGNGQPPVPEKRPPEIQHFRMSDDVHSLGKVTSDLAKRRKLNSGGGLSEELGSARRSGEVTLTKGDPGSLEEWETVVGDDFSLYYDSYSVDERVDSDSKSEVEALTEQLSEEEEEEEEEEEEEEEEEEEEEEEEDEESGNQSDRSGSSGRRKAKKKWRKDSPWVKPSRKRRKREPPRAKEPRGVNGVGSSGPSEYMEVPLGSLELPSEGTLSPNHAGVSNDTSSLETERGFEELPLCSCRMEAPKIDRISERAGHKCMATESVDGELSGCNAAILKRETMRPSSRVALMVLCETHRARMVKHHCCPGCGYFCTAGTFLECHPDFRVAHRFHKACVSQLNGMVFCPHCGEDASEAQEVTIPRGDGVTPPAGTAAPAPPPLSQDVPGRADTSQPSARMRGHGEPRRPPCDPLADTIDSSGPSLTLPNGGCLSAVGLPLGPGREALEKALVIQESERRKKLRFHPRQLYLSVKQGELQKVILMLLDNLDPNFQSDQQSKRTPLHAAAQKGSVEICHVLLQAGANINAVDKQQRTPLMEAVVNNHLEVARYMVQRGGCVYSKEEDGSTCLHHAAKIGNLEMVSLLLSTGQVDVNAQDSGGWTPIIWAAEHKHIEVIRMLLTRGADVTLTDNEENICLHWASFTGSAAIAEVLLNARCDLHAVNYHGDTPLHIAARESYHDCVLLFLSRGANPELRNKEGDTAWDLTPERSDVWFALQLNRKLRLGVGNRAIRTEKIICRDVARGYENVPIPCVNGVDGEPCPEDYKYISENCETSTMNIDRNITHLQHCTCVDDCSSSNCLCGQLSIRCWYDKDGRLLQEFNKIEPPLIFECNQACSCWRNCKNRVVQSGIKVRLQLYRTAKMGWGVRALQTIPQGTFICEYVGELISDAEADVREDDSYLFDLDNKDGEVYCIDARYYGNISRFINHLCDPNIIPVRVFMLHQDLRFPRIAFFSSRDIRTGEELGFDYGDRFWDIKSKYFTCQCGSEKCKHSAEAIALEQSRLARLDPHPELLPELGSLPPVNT
T1 sequence (Q9H9B1 2-1298 limits assumed): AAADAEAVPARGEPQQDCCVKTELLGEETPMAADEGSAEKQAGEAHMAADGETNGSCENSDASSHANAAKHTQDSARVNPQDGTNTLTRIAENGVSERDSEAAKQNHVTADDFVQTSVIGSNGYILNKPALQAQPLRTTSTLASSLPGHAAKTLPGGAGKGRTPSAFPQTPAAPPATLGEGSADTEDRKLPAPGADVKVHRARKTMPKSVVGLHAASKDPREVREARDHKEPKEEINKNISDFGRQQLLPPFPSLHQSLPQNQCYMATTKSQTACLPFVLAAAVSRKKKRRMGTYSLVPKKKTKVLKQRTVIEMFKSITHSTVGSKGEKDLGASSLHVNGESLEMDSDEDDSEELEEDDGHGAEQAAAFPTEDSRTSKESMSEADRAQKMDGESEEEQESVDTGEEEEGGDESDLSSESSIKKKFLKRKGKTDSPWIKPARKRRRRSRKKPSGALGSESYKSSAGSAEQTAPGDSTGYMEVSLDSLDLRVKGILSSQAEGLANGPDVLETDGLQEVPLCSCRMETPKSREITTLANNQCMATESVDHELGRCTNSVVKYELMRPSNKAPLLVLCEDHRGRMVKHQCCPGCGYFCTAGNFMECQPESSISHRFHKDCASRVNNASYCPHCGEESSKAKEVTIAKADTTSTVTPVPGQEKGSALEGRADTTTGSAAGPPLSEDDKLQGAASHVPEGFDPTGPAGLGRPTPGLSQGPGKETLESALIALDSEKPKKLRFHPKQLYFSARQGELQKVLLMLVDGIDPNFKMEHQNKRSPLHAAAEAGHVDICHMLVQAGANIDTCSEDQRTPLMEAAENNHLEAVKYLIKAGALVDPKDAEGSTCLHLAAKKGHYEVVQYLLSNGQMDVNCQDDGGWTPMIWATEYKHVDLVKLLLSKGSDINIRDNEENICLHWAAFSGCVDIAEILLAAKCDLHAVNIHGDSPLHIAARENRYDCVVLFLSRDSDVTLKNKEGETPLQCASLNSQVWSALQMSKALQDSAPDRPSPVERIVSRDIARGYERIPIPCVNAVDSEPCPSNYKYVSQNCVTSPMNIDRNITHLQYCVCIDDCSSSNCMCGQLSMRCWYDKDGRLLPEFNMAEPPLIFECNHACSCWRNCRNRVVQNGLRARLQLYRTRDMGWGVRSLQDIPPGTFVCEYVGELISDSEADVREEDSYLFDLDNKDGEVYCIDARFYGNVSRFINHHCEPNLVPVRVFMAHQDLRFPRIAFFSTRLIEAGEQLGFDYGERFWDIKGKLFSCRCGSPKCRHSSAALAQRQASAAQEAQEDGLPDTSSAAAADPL
Experiment: Triple SILAC pull-down after UNC0638 treatment of 293T cells, DMSO/UNC0638 ratio of protein captured by 3×MBT;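 note: mass spectrometry (Q-Exactive) SILAC quantitation, DMSO/UNC0638 ratio computed after subtracting 3×MBTD355N mutant pull-down background, only proteins with at least twofold 3×MBT over mutant signal considered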
Type: cell-based
Design: cells were treated for 24 hours with UNC0638 at 2.5 μM or DMSO vehicle control; endogenous in cells; host or cells: HEK 293T
Conditions: average of UNC Light and UNC Heavy experiments
MEASUREMENT KIND: Relative to UNC0638 Average (log base 2)
Give bare numbers, in log base 2.

>  <MOLECULE>
CRKL (protein, UniProt P46109 1-303, looked up) Crk-like protein: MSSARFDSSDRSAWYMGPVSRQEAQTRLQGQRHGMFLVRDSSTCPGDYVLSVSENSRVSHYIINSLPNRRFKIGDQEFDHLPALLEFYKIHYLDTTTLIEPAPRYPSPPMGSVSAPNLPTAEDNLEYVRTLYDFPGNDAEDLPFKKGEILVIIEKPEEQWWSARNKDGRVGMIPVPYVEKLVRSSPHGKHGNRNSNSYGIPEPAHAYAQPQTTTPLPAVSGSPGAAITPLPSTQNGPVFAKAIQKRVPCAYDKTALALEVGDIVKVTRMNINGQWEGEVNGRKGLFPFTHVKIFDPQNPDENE

>  <UNIT SYMBOL>
log base 2

>  <Relative to UNC0638 Average>
0.20

$$$$

For each entry beneath this line, provide reported Relative to UNC0638 Average.
1. HNRNPA1 (protein, UniProt P09651 1-372, looked up) Heterogeneous nuclear …: MSKSESPKEPEQLRKLFIGGLSFETTDESLRSHFEQWGTLTDCVVMRDPNTKRSRGFGFVTYATVEEVDAAMNARPHKVDGRVVEPKRAVSREDSQRPGAHLTVKKIFVGGIKEDTEEHHLRDYFEQYGKIEVIEIMTDRGSGKKRGFAFVTFDDHDSVDKIVIQKYHTVNGHNCEVRKALSKQEMASASSSQRGRSGSGNFGGGRGGGFGGNDNFGRGGNFSGRGGFGGSRGGGGYGGSGDGYNGFGNDGGYGGGGPGYSGGSRGYGSGGQGYGNQGSGYGGSGSYDSYNNGGGGGFGGGSGSNFGGGGSYNDFGNYNNQSSNFGPMKGGNFGGRSSGPYGGGGQYFAKPRNQGGYGGSSSSSSYGSGRRF
2. NUDT16L1 (protein, UniProt Q9BRJ7 1-211, looked up) Tudor-interacting repair …: MSTAAVPELKQISRVEAMRLGPGWSHSCHAMLYAANPGQLFGRIPMRFSVLMQMRFDGLLGFPGGFVDRRFWSLEDGLNRVLGLGLGCLRLTEADYLSSHLTEGPHRVVAHLYARQLTLEQLHAVEISAVHSRDHGLEVLGLVRVPLYTQKDRVGGFPNFLSNAFVSTAKCQLLFALKVLNMMPEEKLVEALAAATEKQKKALEKLLPASS
3. SEPT2 (protein, UniProt Q15019 1-361, looked up) Septin-2: MSKQQPTQFINPETPGYVGFANLPNQVHRKSVKKGFEFTLMVVGESGLGKSTLINSLFLTDLYPERVIPGAAEKIERTVQIEASTVEIEERGVKLRLTVVDTPGYGDAINCRDCFKTIISYIDEQFERYLHDESGLNRRHIIDNRVHCCFYFISPFGHGLKPLDVAFMKAIHNKVNIVPVIAKADTLTLKERERLKKRILDEIEEHNIKIYHLPDAESDEDEDFKEQTRLLKASIPFSVVGSNQLIEAKGKKVRGRLYPWGVVEVENPEHNDFLKLRTMLITHMQDLQEVTQDLHYENFRSERLKRGGRKVENEDMNKDQILLEKEAELRRMQEMIARMQAQMQMQMQGGDGDGGALGHHV

OUTPUT:
[0.17, 0.43, 0.17]
